Please respond with reported Splenocyte assay IC50 (IL-17 production by mouse splenocytes) for every item in the list.
Target: T1, human IL-23 (form not stated) (human, UniProt P29460 23-328)
T1 sequence 1: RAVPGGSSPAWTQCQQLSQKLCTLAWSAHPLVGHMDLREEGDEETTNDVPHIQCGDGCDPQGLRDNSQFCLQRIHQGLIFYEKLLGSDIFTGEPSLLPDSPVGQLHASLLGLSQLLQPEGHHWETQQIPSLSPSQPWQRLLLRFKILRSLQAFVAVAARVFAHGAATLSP
T1 sequence 2: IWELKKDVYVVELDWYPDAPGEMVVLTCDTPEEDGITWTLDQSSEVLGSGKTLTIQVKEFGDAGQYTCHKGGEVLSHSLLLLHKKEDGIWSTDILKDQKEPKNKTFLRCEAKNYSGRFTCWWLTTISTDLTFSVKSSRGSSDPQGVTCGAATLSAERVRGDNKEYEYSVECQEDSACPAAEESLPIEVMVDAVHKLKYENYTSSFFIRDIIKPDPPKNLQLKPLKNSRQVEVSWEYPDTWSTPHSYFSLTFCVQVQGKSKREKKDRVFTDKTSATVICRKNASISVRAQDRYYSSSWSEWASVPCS
Test: cell-based or functional assay
State just the number; it will be interpreted in nM.

Give the measured Splenocyte assay IC50 (IL-17 production by mouse splenocytes) of mouse anti-human IL-23p19 antibody 8E9 (antibody, V domains shown) VH: EVQLQQSGPELVKPGASVKMSCKASGYTFTAYLIHWVKQSHGKSLEWIGYINPNNGGTNYNQKFKDKATLTVNKSSATAYMELRSLTSEDSAVFYCSSNWDLDYWGRGTTLTVSS VL: DIVMTQSPATLSVTPGDRVSLSCRASQSIGDYLHWYQQKLHESPRLLIKYASRSISGIPSRFSGSGSGSYFTLSINSVEAEDVGVYFCQNGHSFPFTFGSGTKLEIKR .
0.034

Query (binder): mouse anti-human IL-23p19 antibody 3C4 (antibody, V domains shown) VH: QVQLQQSGGELARPGASVKLSCKASGYTFTSYGIKWVKQRFGQGLEWIGEIFPRGGNTYYNEKFKGKATLTADKSSSTAYMELRSLTSEDSAVYFCTANWDLDYWGQGTTLTVSS VL: DIVMTQSPATLSVTPGDRVSLSCRASQSISDYLHWYQQKSHESPRLLIKYASQSISGIPSRFSGSGSGSDFTLSINSVESEDVGVYYCQNGHSFPFTFGSGTKLKIKR ; field requested: Splenocyte assay IC50 (IL-17 production by mouse splenocytes)
0.014

I'd like to know its Splenocyte assay IC50 (IL-17 production by mouse splenocytes). The binder in question is mouse anti-human IL-23p19 antibody 18E1 (antibody, V domains shown) VH: EVQLQQSGPELVKPGASVKMSCKASGNTFTRYVMNWVKQKPGQGLEWIGYINPYNDGTNYNEKFKGKATLTSDKSSTTAYMELSSLTSEDSAVYYCVHNWDLDYWGQGTTLTVSS VL: DIVMTQSPATLSVTPGDRVSLSCRASQSISHYLYWYQQKSHESPRLLIKYASQSISGIPSRFSGSGSGSDFTLSINSVEPEDVGMYYCQNGHSFPYTFGGGTKLEIKR
0.092
